# apparent KD of MS2 coat protein listing for each entry below
System: MS2 coat protein
Assay: apparent KD of MS2 coat protein; designed switch direction (-1 OFF switch, 1 ON switch): -1; higher = weaker reporter binding
Details: Eterna round: R95; input ligand: FMN 200 uM

SEQ_STRING | SCALE_UNIT | apparent KD of MS2 coat protein
UUUAAUUUUUUUUUUUUACAAGCUUUUUGCUCGUCUUAUACAUGAGGAUCACCCAUGUGAAUGGGAAGUAAAUUAUC [JMF 51] (puzzle: Sensor v3, turn-off variant 2) | nM | 103
AGUGGGCUAGGAUAUCGAUGAACUCACAUGAGGAUCACCCAUGUGUCUUCGGUGGGCGCGCGAGAAGGAGUGAGAU [Belaange] (puzzle: Exclusion 5) | nM | 63.6
GAGAAACAUGAGGAUCACCCAUGUGAGGAUAUGAAAAAGAAAAGAAAAGAAAGAAGAAUCAGAAGGCACAAAGA [salish99-ex1_r3_084] (puzzle: Exclusion 1) | nM | 28.1
AGAUGUAGAUACCGAUCCUACAUGAGGAUCACCCAUGUAGCUAGACGUGCCCGCGUCGCUCGUCAGACUACCAGUAG [salish99_TOv1_r3_090] (puzzle: Sensor v3, turn-off variant 1) | nM | 252
GAAAAGGUAGGAUAUACGAAAAAAAAGGGUAGAAAUAAAACACAUGAGGAUCACCCAUGUAGAAGGACCAAAAG [salish99_ex2_r3_076] (puzzle: Exclusion 2) | nM | 74.5
GAUUAUGCGAGCUUUAGGGACAUGAGGAUCACCCAUGUUCGUCUUAUUGGUCUGGAUGCACUAACAUACCUAAAUCU [JMF 28] (puzzle: Sensor v3, turn-off variant 1) | nM | 22.4
AGGUAACAUGAGGAUCACCCAUGUCAGGAUAUCAGGAAGAUUAGAAUAGAGUAGAGGAUGAGAAGGGACUAUAU [Excluse me! 18- Jieux - Exclusion 1] (puzzle: Exclusion 1) | nM | 31
AUGAAAGUAGGAUAUCGACUGAUUGACAUGAGGAUCACCCAUGUGGUUCUGUGCGGUGUUCGAGAAGGGCUAAGAU [Mageer] (puzzle: Exclusion 5) | nM | 23.1
UUACUAUGUCGCUUAAUAGCUUUUUGCUCGUCUUAUAUUACAUGAGGAUCACCCAUGUAGAUCAUGUGGCGUGACCU [JL ViennaUCT Maridi mod 6] (puzzle: Sensor v3, turn-off variant 2) | nM | 247
AGAAGACAUGAGGAUCACCCAUGUAAGGAUAUCGAAGGUAAGAGAGGAAAGAAGGGAACGAGAAGGUACAGGUG [JR_Exclu1_Sub096] (puzzle: Exclusion 1) | nM | 91.6
GAUUAUGCGAGCUUUAGGGACAUGAGGAUCACCCAUGUUCGUCUUGUUGAUCUAGGUACGCUGACAUACCUAAAUCU [JMF 99] (puzzle: Sensor v3, turn-off variant 1) | nM | 19.6
UUUAAUUUUUUUUUUUUACAAGCUUUUUGCUCGUCUUAUACAUGAGGAUCACCCAUGUAGGUGAAGGGUAAAUUAUC [JMF 81] (puzzle: Sensor v3, turn-off variant 2) | nM | 17.9
GGUCUGCGAGGAUAUACAUGAGGAUCACCCAUGUGCGAGUUACUUGUGAGGUCGGUUGGUAGAAGGCGCGGACG [JL-ex3-2.10 salish99 mod] (puzzle: Exclusion 3) | nM | 51.9
AAAUACAAGCAAAGAUCUUACAUGAGGAUCACCCAUGUGUUCGUCUUAUAAAGUACUAUCACGAAAGUGAUAGUACA [Sensor 3, v1 - 32] (puzzle: Sensor v3, turn-off variant 1) | nM | 14
AAAUAAUAGAUAAAAUAAUACAUGAGGAUCACCCAUGUGGGAUGUUGAGGGUGAUACAGGCUUUUUGCUCGUCUUAU (puzzle: Sensor v3, turn-off variant 1) | nM | 434
CAUGAUCUUCGGAUCAUGUACAUGAGGAUCACCCAUGUUACGAGUUGAUUUUCAUACAAGCUUUUUGCUCGUCUUAU [Sensor v3 - Turn-off variant 1 - 27] (puzzle: Sensor v3, turn-off variant 1) | nM | 226
UCGUGGUAACUCAGCAGUUUCCUGAGCGGAGGAACUUUGACAUGAGGAUCACCCAUGUUGCUUUUUGCUCAUCUUAA [JR_SV3TOV2_Sub042] (puzzle: Sensor v3, turn-off variant 2) | nM | 20.9
AUUAUUUAAGUCAGGAUAUCGUAUUUAAUUAAAUACGAGAAGGGACAUGAGGAUCACCCAUGUAAUAAAUUUUA [JMFs Solution 1] (puzzle: Brourd's mod of Exclusion 4) | nM | 24.1
CAAAACCUAGGAUAUACAUGAGGAUCACCCAUGUCGGGCCUACGCGAAACGCGCCUCAGUAGAAGGAGGGAAAC [Riri] (puzzle: Exclusion 3) | nM | 180
UAAUUAAGUGUGAGGAUAUGCUGGUCCUUGGAUCAGCAGAAGGCACAUGAGGAUCACCCAUGUAAUAUAUAUAU [Mat - Exclusion 4 - JL Mod - D53] (puzzle: Brourd's mod of Exclusion 4) | nM | 361
